Values were extracted from patent US20250051375A1.

Readings of half-life at 2 μM for the listed compounds
- assay.method.text: Intestinal S9 Assay (dog GI S9)
- Type: in vitro ADME
- measurement.parameters: dog, 1.0 mg/mL S9 protein, TRIS pH 7.4, read-out: Dog GI S9 T½
Kindly answer with a numeric value in h, unit omitted.

INSERT INTO assay_data (smiles_record, readout_number) VALUES
  ('COC(=O)N[C@H](C(=O)N[C@@H](Cc1ccc(C#Cc2cnc(N3CC4CCC(C3)N4C3COC3)nc2)cc1)[C@H](CN(Cc1c(F)cc(-c2ccn(C(F)F)n2)cc1F)NC(=O)[C@@H](NC(=O)OC)C(C)(C)C(F)(F)F)OC(=O)CC(C)(C)c1c(CC(=O)NC23CC(C(=O)O)(C2)C3)cc(C)cc1OP(=O)(O)O)C(C)(C)C(F)(F)F', 6.52),
  ('COC(=O)N[C@H](C(=O)N[C@@H](Cc1ccc(C#Cc2cnc(N3CC4CCC(C3)N4C3COC3)nc2)cc1)[C@H](CN(Cc1c(F)cc(-c2ccn(C(F)F)n2)cc1F)NC(=O)[C@@H](NC(=O)OC)C(C)(C)C(F)(F)F)OC(=O)CC(C)(C)c1c(CC(=O)N2C[C@H]3[C@@H]([C@H]2C(=O)O)C3(C)C)cc(C)cc1OP(=O)(O)O)C(C)(C)C(F)(F)F', 7.34),
  ('COC(=O)N[C@H](C(=O)N[C@@H](Cc1ccc(C#Cc2cnc(N3CC4CCC(C3)N4C3COC3)nc2)cc1)[C@H](CN(Cc1c(F)cc(-c2ccn(C(F)F)n2)cc1F)NC(=O)[C@@H](NC(=O)OC)C(C)(C)C(F)(F)F)OC(=O)CC(C)(C)c1c(CC(=O)NC/C(N)=N/O)cc(C)cc1OP(=O)(O)O)C(C)(C)C(F)(F)F', 11.4),
  ('COC(=O)N[C@H](C(=O)N[C@@H](Cc1ccc(C#Cc2cnc(N3CC4CCC(C3)N4C3COC3)nc2)cc1)[C@H](CN(Cc1c(F)cc(-c2ccn(C(F)F)n2)cc1F)NC(=O)[C@@H](NC(=O)OC)C(C)(C)C(F)(F)F)OC(=O)CC(C)(C)c1c(CC(=O)N[C@@H](Cc2ccc(C(=O)O)cc2)C(=O)O)cc(C)cc1OP(=O)(O)O)C(C)(C)C(F)(F)F', 0.993),
  ('COC(=O)N[C@H](C(=O)N[C@@H](Cc1ccc(C#Cc2cnc(N3CC4CCC(C3)N4C3COC3)nc2)cc1)[C@H](CN(Cc1c(F)cc(-c2ccn(C(F)F)n2)cc1F)NC(=O)[C@@H](NC(=O)OC)C(C)(C)C(F)(F)F)OC(=O)CC(C)(C)c1c(CC(=O)NCC(=O)O)cccc1OP(=O)(O)O)C(C)(C)C(F)(F)F', 0.457);

**Query** Entry `COC(=O)N[C@H](C(=O)N[C@@H](Cc1ccc(C#Cc2cnc(N3CC4CCC(C3)N4C3COC3)nc2)cc1)[C@H](CN(Cc1c(F)cc(-c2ccn(C(F)F)n2)cc1F)NC(=O)[C@@H](NC(=O)OC)C(C)(C)C(F)(F)F)OC(=O)CC(C)(C)c1c(CC(=O)NCc2ccc(C(=O)O)cc2)cc(C)cc1OP(=O)(O)O)C(C)(C)C(F)(F)F` : reported half-life at 2 μM = ?
**Result** 2.59

----------
Below, each entry is listed with its recorded Human GI S9 T½.
- assay.method.text: Intestinal S9 Assay (human GI S9)
- Assay type: in vitro ADME
- measurement.parameters: 2 μM, 1.0 mg/mL S9 protein, TRIS pH 7.4
Express it in h; write the number only.

INSERT INTO results (smiles_record, measurement_type, readout_number) VALUES
  ('COC(=O)N[C@H](C(=O)N[C@@H](Cc1ccc(C#Cc2cnc(N3CC4CCC(C3)N4C3COC3)nc2)cc1)[C@H](CN(Cc1c(F)cc(-c2ccn(C(F)F)n2)cc1F)NC(=O)[C@@H](NC(=O)OC)C(C)(C)C(F)(F)F)OC(=O)CC(C)(C)c1c(CC(=O)Nc2cc(C#N)cc(C(=O)O)c2)cc(C)cc1OP(=O)(O)O)C(C)(C)C(F)(F)F', 'Human GI S9 T½', 13.2),
  ('COC(=O)N[C@H](C(=O)N[C@@H](Cc1ccc(C#Cc2cnc(N3CC4CCC(C3)N4C3COC3)nc2)cc1)[C@H](CN(Cc1c(F)cc(-c2ccn(C(F)F)n2)cc1F)NC(=O)[C@@H](NC(=O)OC)C(C)(C)C(F)(F)F)OC(=O)CC(C)(C)c1c(CC(=O)N2C[C@@H](O)C[C@H]2C(=O)O)cc(C)cc1OP(=O)(O)O)C(C)(C)C(F)(F)F', 'Human GI S9 T½', 13.2);

**Query** Which Human GI S9 T½ is reported for this molecule? `COC(=O)N[C@H](C(=O)N[C@@H](Cc1ccc(C#Cc2cnc(N3CC4CCC(C3)N4C3COC3)nc2)cc1)[C@H](CN(Cc1c(F)cc(-c2ccn(C(F)F)n2)cc1F)NC(=O)[C@@H](NC(=O)OC)C(C)(C)C(F)(F)F)OC(=O)CC(C)(C)c1c(CC(=O)N2C[C@H](OC)C[C@H]2C(=O)O)cc(C)cc1OP(=O)(O)O)C(C)(C)C(F)(F)F`
**Result** 13.2

**Query** Which Human GI S9 T½ value belongs to `COC(=O)N[C@H](C(=O)N[C@@H](Cc1ccc(C#Cc2cnc(N3CC4CCC(C3)N4C3COC3)nc2)cc1)[C@H](CN(Cc1c(F)cc(-c2ccn(C(F)F)n2)cc1F)NC(=O)[C@@H](NC(=O)OC)C(C)(C)C(F)(F)F)OC(=O)CC(C)(C)c1c(CC(=O)NC/C(N)=N/O)cc(C)cc1OP(=O)(O)O)C(C)(C)C(F)(F)F` ?
**Result** 13.2

----------
- Test system: HIV-1 IIIB strain
- assay.method.text: MT-4 HIV Wild Type Virus Infection Assay (IIIB Virus)
- Assay type: cell-based
- measurement.parameters: Human immunodeficiency virus 1, IIIB, MT4, 120 h, MT-4 cells acutely infected with HIV-1 IIIB, 5 day incubation, Cell-titer glo
measurement.type: pEC50
In textbook form, pEC50 equals minus log to base ten of the concentration in mol/L.

INSERT INTO results (molecule, measurement_type, readout_number) VALUES
  ('COC(=O)N[C@H](C(=O)N[C@@H](Cc1ccc(C#Cc2cnc(N3CC4CCC(C3)N4C3COC3)nc2)cc1)[C@H](CN(Cc1c(F)cc(-c2ccn(C(F)F)n2)cc1F)NC(=O)[C@@H](NC(=O)OC)C(C)(C)C(F)(F)F)OC(=O)CC(C)(C)c1c(CC(=O)N[C@@H](CCS(=O)(=O)O)C(=O)O)cc(C)cc1OP(=O)(O)O)C(C)(C)C(F)(F)F', 'pEC50', 7.18),
  ('COC(=O)N[C@H](C(=O)N[C@@H](Cc1ccc(C#Cc2cnc(N3CC4CCC(C3)N4C3COC3)nc2)cc1)[C@H](CN(Cc1c(F)cc(-c2ccn(C(F)F)n2)cc1F)NC(=O)[C@@H](NC(=O)OC)C(C)(C)C(F)(F)F)OC(=O)CC(C)(C)c1c(CC(=O)NC(CCCC(=O)O)C(=O)O)cc(C)cc1OP(=O)(O)O)C(C)(C)C(F)(F)F (stereo partly drawn)', 'pEC50', 7.36);

Next molecule, pEC50 to be filled in.
**Query** Bench note: what pEC50 did `COC(=O)N[C@H](C(=O)N[C@@H](Cc1ccc(C#Cc2cnc(N3CC4CCC(C3)N4C3COC3)nc2)cc1)[C@H](CN(Cc1c(F)cc(-c2ccn(C(F)F)n2)cc1F)NC(=O)[C@@H](NC(=O)OC)C(C)(C)C(F)(F)F)OC(=O)CC(C)(C)c1c(CC(=O)N[C@@H](CC(N)=O)C(=O)O)cc(C)cc1OP(=O)(O)O)C(C)(C)C(F)(F)F` show?
**Result** 6.94

----------
- Test system: HIV-1 IIIB strain
- assay.method.text: MT-4 HIV Wild Type Virus Infection Assay (IIIB Virus)
- Format: cell-based
- measurement.parameters: Human immunodeficiency virus 1, IIIB, MT4, 120 h, MT-4 cells acutely infected with HIV-1 IIIB, 5 day incubation, Cell-titer glo
measurement.type: EC50 (nM)
Quick reminder: number only, in nM, skip the unit.

Example results:
INSERT INTO measurements (smiles_record, experimental_system, readout_number) VALUES
  ('COC(=O)N[C@H](C(=O)N[C@@H](Cc1ccc(C#Cc2cnc(N3CC4CCC(C3)N4C3COC3)nc2)cc1)[C@H](CN(Cc1c(F)cc(-c2ccn(C(F)F)n2)cc1F)NC(=O)[C@@H](NC(=O)OC)C(C)(C)C(F)(F)F)OC(=O)CC(C)(C)c1c(CC(=O)N(C)CCCC(=O)O)cc(C)cc1OP(=O)(O)O)C(C)(C)C(F)(F)F', 'HIV-1 IIIB strain', 55.8),
  ('COC(=O)N[C@H](C(=O)N[C@@H](Cc1ccc(C#Cc2cnc(N3CC4CCC(C3)N4C3COC3)nc2)cc1)[C@H](CN(Cc1c(F)cc(-c2ccn(C(F)F)n2)cc1F)NC(=O)[C@@H](NC(=O)OC)C(C)(C)C(F)(F)F)OC(=O)CC(C)(C)c1c(CC(=O)N2CC[C@@H](C(=O)O)C2)cc(C)cc1OP(=O)(O)O)C(C)(C)C(F)(F)F', 'HIV-1 IIIB strain', 224);

Consider now this further compound.
**Query** What measured EC50 goes with `COC(=O)N[C@H](C(=O)N[C@@H](Cc1ccc(C#Cc2cnc(N3CC4CCC(C3)N4C3COC3)nc2)cc1)[C@H](CN(Cc1c(F)cc(-c2ccn(C(F)F)n2)cc1F)NC(=O)[C@@H](NC(=O)OC)C(C)(C)C(F)(F)F)OC(=O)OCOC(=O)CC(C)(C)c1c(CC(=O)NCP(=O)(O)O)cc(C)cc1OP(=O)(O)O)C(C)(C)C(F)(F)F` ?
**Result** 3.5
